Tested on: 786-O
Test: Euclidean distance of Cell Painting phenotypic profile (signed KS, 77 features) to DMSO centroid (dimensionless distance); 5 or 10 uM (library dependent); higher = stronger phenotypic change vs DMSO (phenoactivity)
Conditions: 48 h
observation_type: Euclidean distance
Form: value (number only, do not type unit).

Worked set:
>>> measured_value("CC(=O)O[C@H]1C[C@@]2(C)[C@@H](C[C@@H](O)[C@H]3[C@@]4(C)CC[C@@H](O)[C@@H](C)[C@@H]4CC[C@@]32C)/C1=C(\\CCC=C(C)C)C(=O)O")
0.63
>>> measured_value("CS(=O)(=O)OCCCCOS(C)(=O)=O")
1.22
>>> measured_value("CN(C)CCOc1ccc(-c2nc(-c3ccncc3)c(-c3ccc4c(c3)CC/C4=N\\O)[nH]2)cc1")
1.49
>>> measured_value("O=C(c1cncc(Br)c1)N1CCC(N2CCCC2)CC1")
0.781
>>> measured_value("CNC(=O)c1ccccc1Sc1ccc2c(/C=C/c3ccccn3)n[nH]c2c1")
3.11
>>> measured_value("CCCOc1ccc(S(=O)(=O)NCCC2CCCN2C)cc1-c1nc2c(CCC)nn(C)c2c(=O)[nH]1 (configuration not stated)")
1.13
>>> measured_value("CC(C[N+](C)(C)C)OC(N)=O (configuration not stated) [Bethanechol chloride]")
1.22
>>> measured_value("O=C(NC[C@H]1CN(c2ccc(N3CCOCC3=O)cc2)C(=O)O1)c1ccc(Cl)s1")
1.33
>>> measured_value("CC(C)c1nc(N(C)S(C)(=O)=O)nc(-c2ccc(F)cc2)c1/C=C/[C@@H](O)C[C@@H](O)CC(=O)O")
0.535
>>> measured_value("CCOC(=O)OC(C)OC1=C(C(=O)Nc2ccccn2)N(C)S(=O)(=O)c2ccccc21 (configuration not stated)")
1.26

For the next question, use this molecule.
Exam item: Missing value: Euclidean distance, 786-O, entry Cc1cc(Cn2cnc3c2CC(C(=O)O)N(C(=O)C(c2ccccc2)c2ccccc2)C3)ccc1N(C)C (configuration not stated) . Fill in?
Marked response: 0.67
